Entries and their pIC50
# test.system: recombinant human dopamine transporter (Homo sapiens, UniProt Q01959)
# Construct: expressed in transfected cells
# Sequence (Q01959 whole entry): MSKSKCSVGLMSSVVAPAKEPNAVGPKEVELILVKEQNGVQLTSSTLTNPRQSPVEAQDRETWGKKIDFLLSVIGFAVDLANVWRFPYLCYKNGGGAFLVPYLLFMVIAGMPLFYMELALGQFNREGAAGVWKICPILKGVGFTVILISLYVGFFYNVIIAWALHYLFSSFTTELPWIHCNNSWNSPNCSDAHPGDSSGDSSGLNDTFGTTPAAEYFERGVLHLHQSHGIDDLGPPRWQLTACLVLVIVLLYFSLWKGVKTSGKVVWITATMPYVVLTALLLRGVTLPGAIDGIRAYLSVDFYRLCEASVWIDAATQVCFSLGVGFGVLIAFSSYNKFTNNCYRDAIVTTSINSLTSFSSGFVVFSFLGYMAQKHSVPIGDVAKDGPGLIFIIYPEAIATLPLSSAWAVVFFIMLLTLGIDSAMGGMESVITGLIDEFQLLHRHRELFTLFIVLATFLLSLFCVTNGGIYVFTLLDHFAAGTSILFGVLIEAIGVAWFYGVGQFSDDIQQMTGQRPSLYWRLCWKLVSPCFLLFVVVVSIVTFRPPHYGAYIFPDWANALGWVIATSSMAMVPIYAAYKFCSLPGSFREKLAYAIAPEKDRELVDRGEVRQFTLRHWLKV
# test.description: dopamine reuptake inhibition in HEK 293 cells
# Assay type: cell-based
# condition.label: DOPAMINE DA REUPTAKE (IC50), RR/SS racemates table; HEK 293 cells
pIC50: −log10 of the molar value.
measurement.kind: pIC50

- CCCCC(c1ccc(Cl)cc1)C1CCCCN1 (single isomer, unassigned): 8.09
- CC(C)CC(c1ccc(C(C)C)cc1)C1CCCCN1 (racemic): 5.40
- Clc1ccc(C(C2CCCC2)C2CCCCN2)cc1 (single isomer, unassigned): 7.57

* * *

# test.system: recombinant human dopamine transporter (Homo sapiens)
# Construct: expressed in transfected cells
# test.description: [125I]RTI-55 binding, dopamine transporter in HEK 293 cells
# condition.label: DOPAMINE [I125]-RTI-55 BINDING (Ki), RR/SS racemates table; HEK 293 cells
pKi: −log10 of the molar value.
Label met for high-side pKi (at or above 8) and not met for low-side pKi (below it).

- Clc1ccc(C(CC2CCCCC2)C2CCCCN2)cc1 (single isomer, unassigned): not met
- COC(=O)C(c1ccc(Cl)cc1)C1CCCCN1 (single isomer, unassigned): not met
- Clc1ccc(C(C2CCCC2)C2CCCCN2)cc1 (single isomer, unassigned): not met
- COC(=O)C(c1ccc(Cl)c(Cl)c1)C1CCCCN1 (single isomer, unassigned): met
- CC(C)CC(c1ccc(C(C)C)cc1)C1CCCCN1 (racemic): not met
- CC(C)C(c1ccc(Cl)cc1)C1CCCCN1 (single isomer, unassigned): not met

* * *

Entries and their pKi
# test.system: recombinant human serotonin transporter (Homo sapiens, UniProt P31645)
# Construct: expressed in transfected cells
# Sequence (P31645 whole entry): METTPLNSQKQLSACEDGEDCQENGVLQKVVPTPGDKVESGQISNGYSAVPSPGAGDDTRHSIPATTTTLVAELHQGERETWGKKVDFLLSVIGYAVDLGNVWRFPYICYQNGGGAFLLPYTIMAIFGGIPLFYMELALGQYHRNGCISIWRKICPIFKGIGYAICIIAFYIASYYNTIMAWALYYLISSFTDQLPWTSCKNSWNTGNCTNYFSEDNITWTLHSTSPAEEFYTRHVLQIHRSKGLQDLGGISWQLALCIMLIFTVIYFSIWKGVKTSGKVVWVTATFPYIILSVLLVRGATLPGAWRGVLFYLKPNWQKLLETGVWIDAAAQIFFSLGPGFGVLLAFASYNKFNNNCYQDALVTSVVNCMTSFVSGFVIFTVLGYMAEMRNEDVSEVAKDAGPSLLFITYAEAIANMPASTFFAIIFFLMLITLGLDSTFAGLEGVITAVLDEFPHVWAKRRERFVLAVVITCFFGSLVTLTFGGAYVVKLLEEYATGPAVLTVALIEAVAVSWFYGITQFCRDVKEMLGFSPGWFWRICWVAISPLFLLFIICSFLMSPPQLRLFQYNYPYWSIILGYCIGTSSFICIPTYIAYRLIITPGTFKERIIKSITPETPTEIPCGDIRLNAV
# test.description: biochemical
# Format: binding
# condition.label: RR/SS racemates table; HEK 293 cells; read-out: SEROTONIN [I125]-RTI-55 BINDING (Ki)
pKi: −log10 of the molar value.
measurement.kind: pKi

• COC(=O)C(c1ccc(Cl)c(Cl)c1)C1CCCCN1 (single isomer, unassigned) [M] = 5.80
• CC(C)CC(c1ccc(Cl)c(Cl)c1)C1CCCCN1C (single isomer, unassigned) [O] = 5.89
• CC(C)CC(c1ccc(Cl)c(Cl)c1)C1CCCCN1 (racemic) [Sample N] = 5.80
• Clc1ccc(C(CC2CCCCC2)C2CCCCN2)cc1 (single isomer, unassigned) [H] = 6.05
• CC(C)(C)CC(c1ccc(Cl)cc1)C1CCCCN1 (racemic) [F] = 5.41
• CCCC(c1ccc(Cl)cc1)C1CCCCN1 (racemic) [Sample E] = 5.57
• Clc1ccc(C(C2CCCC2)C2CCCCN2)cc1 (single isomer, unassigned) [K] = 5.24

* * *

# test.system: recombinant human dopamine transporter (Homo sapiens, UniProt Q01959)
# Construct: expressed in transfected cells
# test.description: dopamine reuptake inhibition in HEK 293 cells
# Format: cell-based
# condition.label: RS/SR racemates table; HEK 293 cells; read-out: DOPAMINE DA REUPTAKE (IC50)
Entries and their IC50
measurement.kind: IC50

* CC(C)CC(c1ccc(Cl)c(Cl)c1)C1CCCCN1 (racemic) | 0.013 µM
* CC(C)CC(c1ccc(Cl)cc1)C1CCCCN1 (racemic) | 0.38 µM
* Clc1ccc(C(CC2CCCC2)C2CCCCN2)cc1 (racemic) | 0.18 µM
